# targetUnderTest: CPM-PBP (Escherichia coli, UniProt P0AG82, A222C)
# Construct: A197 is located at position 197 numbering from the N-terminus of the mature PBP; made in house; host or cells: E. coli strain ANCC75, plasmid pSN5182/N, periplasm
# Sequence (P0AG82 26-346 A222C): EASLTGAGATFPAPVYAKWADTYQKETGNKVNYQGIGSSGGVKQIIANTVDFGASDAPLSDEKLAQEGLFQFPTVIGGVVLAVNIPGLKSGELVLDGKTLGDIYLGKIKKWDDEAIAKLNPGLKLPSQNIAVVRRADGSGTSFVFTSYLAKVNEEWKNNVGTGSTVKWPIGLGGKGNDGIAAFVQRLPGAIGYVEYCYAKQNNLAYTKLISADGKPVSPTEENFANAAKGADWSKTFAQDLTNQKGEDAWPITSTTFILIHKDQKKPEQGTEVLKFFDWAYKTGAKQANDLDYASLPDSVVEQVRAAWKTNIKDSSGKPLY
# Format: binding, E. coli
# experimentalParameters: addition 100 μM; 6 μM CPM-PBP, 10 mM Tris.HCl pH 8.0
measurementType: % fluorescence increase (%)
Express the result in % but write the number alone.

Prompt: Sample O=P(O)(O)OC[C@H]1OC(O)[C@H](O)[C@@H](O)[C@@H]1O (some centres unmarked) [Glucose-6-phosphate] — what was its % fluorescence increase?
Response: 4

Prompt: Sample Nc1ncnc2c1ncn2[C@@H]1O[C@H](COP(=O)(O)OP(=O)(O)OP(=O)(O)O)[C@@H](O)[C@H]1O [ATP] — what was its % fluorescence increase?
Response: 5

Prompt: Sample O=[As]([O-])([O-])O.[Na+].[Na+] [Sodium arsenate] — what was its % fluorescence increase?
Response: 25

Prompt: Sample Nc1nc2c(ncn2[C@@H]2O[C@H](COP(=O)(O)OP(=O)(O)O)[C@@H](O)[C@H]2O)c(=O)[nH]1 [GDP] — what was its % fluorescence increase?
Response: 5

Prompt: Sample Nc1ncnc2c1ncn2[C@@H]1O[C@H](COP(=O)(O)OP(=O)(O)O)[C@@H](O)[C@H]1O [ADP] — what was its % fluorescence increase?
Response: 4
